- TARGET_DESC: MSI1 full-length (mouse, UniProt Q61474 1-362)
- Sequence (Q61474 whole entry): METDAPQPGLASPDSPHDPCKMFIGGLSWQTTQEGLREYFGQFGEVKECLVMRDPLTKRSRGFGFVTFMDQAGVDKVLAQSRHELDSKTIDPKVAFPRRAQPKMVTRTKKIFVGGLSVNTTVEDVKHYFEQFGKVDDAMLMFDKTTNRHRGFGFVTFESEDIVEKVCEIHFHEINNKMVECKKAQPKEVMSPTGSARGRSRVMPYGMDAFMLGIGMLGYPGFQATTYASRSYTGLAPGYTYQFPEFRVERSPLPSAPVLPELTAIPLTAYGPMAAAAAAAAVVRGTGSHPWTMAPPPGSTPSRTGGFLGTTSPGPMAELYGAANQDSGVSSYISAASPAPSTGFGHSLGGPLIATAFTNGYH
- TEST_DESCRIPTION: nsRBNS (natural sequence RNA bind-n-seq); RBNS binding buffer (assumed for nsRBNS): 25 mM Tris pH 7.5, 150 mM KCl, 3 mM MgCl2, 0.01% Triton X-100, 500 ug/ml BSA, 20 U/ml SUPERase-In, 4 C; UNK is unkempt and MSI1 is Musashi-1; names of the RNAs are library labels; protein concentration not given here; high values mean tight binding
Whole data set: some 5,800 sequences, median “enrichment r” near 0.54, cut for the highest 2% near 16. For the sample, the highest values were picked, then their nearest neighbours and some sequences at random.
Lab note: compare binding signal against 0.5 enrichment R. Equal or greater, write met. Smaller, write not met.

- BINDER: "chr6:89631235:89631336:+|3pUTR|ENSG00000135299|msi1|FALSE|unique (ssRNA) RNA: GGGAGUUCUACAGUCCGACGAUCUGAAGUUUGAAAGCUCAGAUUAAGCAAGCCAUGCCAAGAAACUGGACGAUGUGUAAGCCUAGACUCUAAAAUUCAAGAUGUGUGAAAUAAUAUAAGUCAAAAGCAAGAAAAACGUAAUCCCAACAGAGGAUUGAGCAUCA"
  CLASS_LABEL: "not met"
- BINDER: "chr2:206311781:206311882:+|3pUTR|ENSG00000204186|unk|FALSE|unique (ssRNA) RNA: GGGAGUUCUACAGUCCGACGAUCUAGUGUUUAGAGUCCUUUCAUUUUAAGAUUCAGAAACAGCCUUUGUCCAACAUUUUCUGUAGAAGAACUUCAUCUUAAUUUAUGUCACAAAAUAAUUUAGCACCGUAUAUAGAAUUUUGUCAACAGAGGAUUGAGCAUCA"
  CLASS_LABEL: "met"
- BINDER: "chr14:44928120:44928223:-|3pUTR|ENSG00000179454|unk|FALSE|unique (ssRNA) RNA: GGGAGUUCUACAGUCCGACGAUCUAGUACAGCAGGCCUCCCAGUGCUGAUGUAAAUAUUUGAGCAGUGUUUAGUACCAUUCUUAGUGCAUAUUAAUUUUUUUAUAUAUCCUUAUAAUUUUAGUUUUUUAAGAUCUUUGCUUUUCAACAGAGGAUUGAGCAUCA"
  CLASS_LABEL: "met"
- BINDER: "chr10:62095068:62095169:+|3pUTR|ENSG00000150347|msi1|FALSE|unique (ssRNA) RNA: GGGAGUUCUACAGUCCGACGAUCCCAUUUGCUUCAAUUAAUUAUUUACCUUCCUGUGGAAUAAUAUAUAUAUAUAUAUUUAAUAGAACCAUAGAUAGACUAGUAGAAUUUAGAUUAUAAAUGUGUGAGUGCAGAUUAUCCUGCCAACAGAGGAUUGAGCAUCA"
  CLASS_LABEL: "met"
- BINDER: "chr2:224511460:224511569:-|CDS|ENSG00000036257|unk|FALSE|bound_elsewhere (ssRNA) RNA: GGGAGUUCUACAGUCCGACGAUCGAAAGCCAGAAAUUUUUAGCAGAAAAUAGUGCUUCAGUAUAUAUAAAGAAAGUAGAAGCUAGAAUUAAUGAAGAAAUAGAACGAGUGAUGCACUGCCUUGACAAAUCAACGGAAGAACCACAACAGAGGAUUGAGCAUCA"
  CLASS_LABEL: "met"
- BINDER: "chr2:224511460:224511569:-|CDS|ENSG00000036257|unk|total|mutant (ssRNA) RNA: GGGAGUUCUACAGUCCGACGAUCGAAAGCCAGAAAUUUUCCGCAGAAAACCGUGCUUCAGUAUAUAUAAAGAAAGCCGAAGCCCGAAUUAAUGAAGAAACCGAACGAGUGAUGCACUGCCUUGACAAAUCAACGGAAGAACCACAACAGAGGAUUGAGCAUCA"
  CLASS_LABEL: "not met"
